Target: Aldo-keto reductase family 1 member B1 (Homo sapiens)

>  <smiles.entry>
O=c1ccc(S(=O)(=O)c2cc3ccccc3o2)n[nH]1

>  <IC50 [µM]>
0.15

$$$$

Reference for the values: BindingDB's records for doi:10.1021/jm034065z
